Test system: Coxsackievirus B3
methodDescription: Antiviral activity against Coxsackievirus B3 infected in african green monkey […] assessed as inhibition of virus-induced cytopathic effect after 3 days by MTS assay
Type: functional, organism-based
conditionDetails: Enterovirus B, 72 h
Threshold 2 µM: EC50 strictly smaller gives class 1, otherwise class 0.

INSERT INTO measurements (compound, assignedclass) VALUES
  ('ClCC1C2COC3C2OC1C3n1cnc2c(Cl)ncnc21 (stereo not drawn)', 'class 1');

Query string: Decide: EC50 of O[C@@H]1[C@@H]2C[C@H]([C@@H]1O)[C@@H](n1cnc3c(Cl)ncnc31)C2 (relative stereo) strictly below 2 µM?
Result string: class 0

Query string: Decide: EC50 of O=C1C[C@@H]2C[C@H]1[C@H](n1cnc3c(Cl)ncnc31)C2 (relative stereo) strictly below 2 µM?
Result string: class 1

Query string: Decide: EC50 of O=C1C[C@H]2C[C@@H]1C[C@@H]2n1cnc2c(Cl)ncnc21 (relative stereo) strictly below 2 µM?
Result string: class 1

Query string: Decide: EC50 of O[C@H]1C[C@H]2C[C@@H]1C[C@@H]2n1cnc2c(Cl)ncnc21 (relative stereo) strictly below 2 µM?
Result string: class 0

Query string: Decide: EC50 of Clc1ncnc2c1ncn2[C@H]1C[C@H]2C[C@@H]1C[C@@H]2n1cnc2c(Cl)ncnc21 (relative stereo) strictly below 2 µM?
Result string: class 0

Query string: Decide: EC50 of Clc1ncnc2c1ncn2[C@H]1C[C@H]2C[C@@H]1[C@@H]1CCC[C@H]21 (relative stereo) strictly below 2 µM?
Result string: class 1

Query string: Decide: EC50 of Clc1ncnc2c1ncn2C[C@@H]1C[C@H]2CC[C@@H]1C2 (relative stereo) strictly below 2 µM?
Result string: class 0

====

Test system: Coxsackievirus B3
methodDescription: Antiviral activity against Coxsackievirus B3 infected in african green monkey […] assessed as inhibition of virus-induced cytopathic effect after 3 days by MTS assay
Assay type: functional, organism-based
conditionDetails: Enterovirus B, 72 h
measureName: EC50 (µM)
Please reply with the bare figure in µM and do not write the unit itself.

INSERT INTO assay_data (compound, measurename, numericreadout) VALUES
  ('Clc1ncnc2c1ncn2[C@@H]1[C@@H]2C[C@@H]3[C@H]1CO[C@@H]3C2 (relative stereo)', 'EC50', 1),
  ('O[C@@H]1C[C@H]2C[C@@H]1[C@@H](n1cnc3c(Cl)ncnc31)C2 (relative stereo)', 'EC50', 1.1);

Query string: Check the records and state EC50 for ClCC1C2COC3C2CC1C3n1cnc2c(Cl)ncnc21 (stereo not drawn)
Result string: 1

Query string: Check the records and state EC50 for Clc1ncnc2c1ncn2[C@H]1[C@@H]2C[C@@H]3CO[C@H]1[C@H]3C2 (relative stereo)
Result string: 1.27

Query string: Check the records and state EC50 for Clc1ncnc2c1ncn2[C@H]1C[C@H]2C[C@@H]1c1ccccc12 (relative stereo)
Result string: 0.66

Query string: Check the records and state EC50 for O[C@H]1C[C@@H]2C[C@@H]1C[C@H]2n1cnc2c(Cl)ncnc21 (relative stereo)
Result string: 1.05

Query string: Check the records and state EC50 for CC1(C)[C@@H]2CC[C@@]1(C)[C@H](n1cnc3c(Cl)ncnc31)C2 (relative stereo)
Result string: 3.47

====

Test system: Coxsackievirus B3
methodDescription: Antiviral activity against Coxsackievirus B3 infected in african green monkey […] assessed as inhibition of virus-induced cytopathic effect after 3 days by MTS assay
Type: functional, organism-based
Threshold 8 µM: EC90 strictly smaller gives TRUE, otherwise FALSE.

# count of solved cases: 8
INSERT INTO measurements (molecule, assignedclass) VALUES
  ('CC1(C)[C@@H]2CC[C@@]1(C)[C@H](n1cnc3c(Cl)ncnc31)C2 (relative stereo)', 'FALSE'),
  ('Clc1ncnc2c1ncn2[C@H]1C[C@H]2C[C@@H]1c1ccccc12 (relative stereo)', 'FALSE'),
  ('Clc1ncnc2c1ncn2[C@H]1C[C@@H]2C=C[C@H]1C2 (relative stereo)', 'TRUE'),
  ('O=C1C[C@H]2C[C@@H]1C[C@@H]2n1cnc2c(Cl)ncnc21 (relative stereo)', 'TRUE'),
  ('CC1(C)[C@H]2CC[C@H](C2)[C@@H]1n1cnc2c(Cl)ncnc21 (relative stereo)', 'FALSE'),
  ('O[C@@H]1[C@@H]2C[C@H]([C@@H]1O)[C@@H](n1cnc3c(Cl)ncnc31)C2 (relative stereo)', 'FALSE'),
  ('Clc1ncnc2c1ncn2C[C@@H]1C[C@H]2CC[C@@H]1C2 (relative stereo)', 'FALSE'),
  ('Clc1ncnc2c1ncn2C[C@H]1C[C@@H]2C=C[C@H]1C2 (relative stereo)', 'FALSE');

Query string: Decide: EC90 of Clc1ncnc2c1ncn2[C@H]1C[C@H]2C[C@@H]1c1cc3ccccc3cc12 (relative stereo) strictly below 8 µM?
Result string: FALSE
